# Tested on: human leukemia HL-60 cells
# TEST_DESCRIPTION: HL-60 cell growth inhibition (72 h)
# Type: cell-based
# MEASUREMENT_CONDITIONS: Homo sapiens; HL-60, 72 h, 0.2% DMSO; read-out: ID50, M [HL-60 cell growth (72 h)] (A)
# Protocol: For cell growth inhibition studies, HL-60 cells […]) were grown in RPMI 1640 media at 37° C. in humidified 5% CO2 for 72 h. Viable cells were counted with the trypan blue exclusion method. The fractional inhibitions at four or five concentrations of compounds (in 0.2% DMSO) were analyzed with a median-effect plot (Chou, T.-C., et al., Adv. Enzyme Regul. 22:27 (1984)) by using a computer program. […]
RESULT_TYPE: log10(IC50) (log10 of the value in µM)
# values: log10(IC50), units µM

# return recorded log10(IC50) for entry CCN(CC)Cc1cc(OC)c2c(c1)C(=O)c1cc(OC)cc(OC)c1C2=O [IXb-1]
0.90

# return recorded log10(IC50) for entry CCCCNCc1cc(O)c2c(c1)C(=O)c1cccc(O)c1C2=O [XIa-10]
0.61

# return recorded log10(IC50) for entry COc1cc(O)c2c(c1)C(=O)c1cc(CNCCO)cc(O)c1C2=O [XIb-6]
0.20

# return recorded log10(IC50) for entry CCN(CC)Cc1cc(O)c2c(c1)C(=O)c1cccc(O)c1C2=O [XIa-1]
0.26

# return recorded log10(IC50) for entry O=C1c2cccc(O)c2C(=O)c2c(O)cc(CBr)cc21 [VIa]
0.85

# return recorded log10(IC50) for entry COc1cccc2c1C(=O)c1c(OC)cc(C)cc1C2=O [IIa]
1.00

# return recorded log10(IC50) for entry COc1cc(OC)c2c(c1)C(=O)c1cc(CN(CCO)CCO)cc(OC)c1C2=O [IXb-2]
2.00

# return recorded log10(IC50) for entry COc1cc(OC)c2c(c1)C(=O)c1cc(CNCCO)cc(OC)c1C2=O [IXb-6]
2.04

# return recorded log10(IC50) for entry COc1cccc2c1C(=O)c1c(OC)cc(CN(CCO)CCO)cc1C2=O [IXa-2]
2.69

# return recorded log10(IC50) for entry CNC(=O)OCCN(CCOC(=O)NC)Cc1cc(O)c2c(c1)C(=O)c1cccc(O)c1C2=O [XIa-4]
2.32

# return recorded log10(IC50) for entry CC(C)NC(=O)OCCN(CCOC(=O)NC(C)C)Cc1cc(O)c2c(c1)C(=O)c1cccc(O)c1C2=O [XIa-12]
1.43

# return recorded log10(IC50) for entry O=C1c2cccc(O)c2C(=O)c2c(O)cc(CNCCO)cc21 [XIa-6]
-0.07

# return recorded log10(IC50) for entry COc1cccc2c1C(=O)c1c(OC)cc(CBr)cc1C2=O [IIIa]
0.64

# return recorded log10(IC50) for entry O=C1c2cccc(O)c2C(=O)c2c(O)cc(CN3CCCC3)cc21 [XIa-13]
0.32

# return recorded log10(IC50) for entry CCNCc1cc(O)c2c(c1)C(=O)c1cc(OC)cc(O)c1C2=O [XIb-5]
0.32

# return recorded log10(IC50) for entry CN(C)Cc1cc(O)c2c(c1)C(=O)c1cccc(O)c1C2=O [XIa-9]
0.43

# return recorded log10(IC50) for entry COc1cc(O)c2c(c1)C(=O)c1cc(CBr)cc(O)c1C2=O [VIb]
1.40

# return recorded log10(IC50) for entry COc1cc(OC)c2c(c1)C(=O)c1cc(CBr)cc(OC)c1C2=O [IIIb]
1.92

# return recorded log10(IC50) for entry CCNCc1cc(OC)c2c(c1)C(=O)c1cc(OC)cc(OC)c1C2=O [IXb-5]
1.23

# return recorded log10(IC50) for entry O=C1c2cccc(O)c2C(=O)c2c(O)cc(CN3CCCCC3)cc21 [XIa-14]
0.45

# return recorded log10(IC50) for entry COc1cccc2c1C(=O)c1c(OC)cc(CNCCO)cc1C2=O [IXa-6]
1.74

# return recorded log10(IC50) for entry O=C1c2cccc(O)c2C(=O)c2c(O)cc(CN(CCO)CCO)cc21 [XIa-2]
0.52

# return recorded log10(IC50) for entry O=C1c2cccc(O)c2C(=O)c2c(O)cc(Cn3ccnc3)cc21 [XIa-15]
0.68

# return recorded log10(IC50) for entry COc1cccc2c1C(=O)c1c(OC)cc(C(Br)Br)cc1C2=O [IVa]
0.32

# return recorded log10(IC50) for entry COc1cc(O)c2c(c1)C(=O)c1cc(CN(CCO)CCO)cc(O)c1C2=O [XIb-2]
0.82

# return recorded log10(IC50) for entry O=C1c2cccc(O)c2C(=O)c2c(O)cc(C(Br)Br)cc21 [VIIIa]
0.40

# return recorded log10(IC50) for entry NCc1cc(O)c2c(c1)C(=O)c1cccc(O)c1C2=O [XIa-8]
1.04

# return recorded log10(IC50) for entry CNC(=O)OCCN(CCOC(=O)NC)Cc1cc(OC)c2c(c1)C(=O)c1cccc(OC)c1C2=O [IXa-4]
0.98

# return recorded log10(IC50) for entry COc1cc(OC)c2c(c1)C(=O)c1cc(C)cc(OC)c1C2=O [IIb]
1.69

# return recorded log10(IC50) for entry COc1cc(O)c2c(c1)C(=O)c1cc(C(Br)Br)cc(O)c1C2=O [VIIIb]
-0.72

# return recorded log10(IC50) for entry COc1cc(OC)c2c(c1)C(=O)c1cc(C(Br)Br)cc(OC)c1C2=O [IVb]
0.78

# return recorded log10(IC50) for entry CCN(CC)Cc1cc(O)c2c(c1)C(=O)c1cc(OC)cc(O)c1C2=O [XIb-1]
0.53

# return recorded log10(IC50) for entry CCNCc1cc(OC)c2c(c1)C(=O)c1cccc(OC)c1C2=O [IXa-5]
1.68

# return recorded log10(IC50) for entry O=C1c2cccc(O)c2C(=O)c2c(O)cc(CNCCCO)cc21 [XIa-11]
0.51

# return recorded log10(IC50) for entry CCNCc1cc(O)c2c(c1)C(=O)c1cccc(O)c1C2=O [XIa-5]
0.94

# return recorded log10(IC50) for entry CCN(CC)Cc1cc(OC)c2c(c1)C(=O)c1cccc(OC)c1C2=O [IXa-1]
1.48

---

# Tested on: mouse leukemia L1210 cells
# TEST_DESCRIPTION: Inhibition of L1210 cell growth
# Type: cell-based
# MEASUREMENT_CONDITIONS: Mus musculus, L1210; Table I; read-out: ID50 (the source's name)
RESULT_TYPE: IC50 (µM)
Respond with the bare value in µM.

# return recorded IC50 for entry CCNCc1cc(O)c2c(c1)C(=O)c1cccc(O)c1C2=O [XIa-5]
0.77

# return recorded IC50 for entry CCN(CC)Cc1cc(O)c2c(c1)C(=O)c1cccc(O)c1C2=O [XIa-1]
2.8

# return recorded IC50 for entry COc1cccc2c1C(=O)c1c(OC)cc(CNCCO)cc1C2=O [IXa-6]
142

# return recorded IC50 for entry COc1cc(O)c2c(c1)C(=O)c1cc(CNCCO)cc(O)c1C2=O [XIb-6]
0.19

# return recorded IC50 for entry COc1cc(OC)c2c(c1)C(=O)c1cc(CN(CCO)CCO)cc(OC)c1C2=O [IXb-2]
27.7

# return recorded IC50 for entry O=C1c2cccc(O)c2C(=O)c2c(O)cc(CN(CCO)CCO)cc21 [XIa-2]
5.9

# return recorded IC50 for entry CCNCc1cc(OC)c2c(c1)C(=O)c1cc(OC)cc(OC)c1C2=O [IXb-5]
3.67

# return recorded IC50 for entry COc1cc(O)c2c(c1)C(=O)c1cc(CN(CCO)CCO)cc(O)c1C2=O [XIb-2]
13.7

# return recorded IC50 for entry CCNCc1cc(OC)c2c(c1)C(=O)c1cccc(OC)c1C2=O [IXa-5]
3.59

---

# Test system: mouse leukemia L1210 cells
# TEST_DESCRIPTION: Inhibition of L1210 cell growth
# Format: cell-based
# MEASUREMENT_CONDITIONS: Mus musculus, L1210; Table I; read-out: ID50 (the source's name)
RESULT_TYPE: IC50 (µM)
Respond with the bare value in µM.

# return recorded IC50 for entry CCN(CC)Cc1cc(O)c2c(c1)C(=O)c1cc(OC)cc(O)c1C2=O [XIb-1]
1.16

# return recorded IC50 for entry O=C1c2cccc(O)c2C(=O)c2c(O)cc(CNCCO)cc21 [XIa-6]
0.16

# return recorded IC50 for entry CCN(CC)Cc1cc(OC)c2c(c1)C(=O)c1cccc(OC)c1C2=O [IXa-1]
128

# return recorded IC50 for entry CCN(CC)Cc1cc(OC)c2c(c1)C(=O)c1cc(OC)cc(OC)c1C2=O [IXb-1]
6.91

# return recorded IC50 for entry COc1cc(OC)c2c(c1)C(=O)c1cc(CNCCO)cc(OC)c1C2=O [IXb-6]
12.5

# return recorded IC50 for entry CCNCc1cc(O)c2c(c1)C(=O)c1cc(OC)cc(O)c1C2=O [XIb-5]
0.44
